# systemUnderTest: HA of A/New Jersey/8/76 (H1N1) virus (influenza A virus)
# experimentDescription: cell-based or functional assay
property: Neutralization IC50, H1-NJ76 (µg/mL)
// units = µg/mL; emit number, no label

Q: Param item = Antibody 14 (antibody, V domains shown) VH: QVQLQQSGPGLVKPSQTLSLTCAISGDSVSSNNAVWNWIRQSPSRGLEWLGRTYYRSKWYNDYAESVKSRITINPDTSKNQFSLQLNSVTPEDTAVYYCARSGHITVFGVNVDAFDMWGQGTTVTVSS VL: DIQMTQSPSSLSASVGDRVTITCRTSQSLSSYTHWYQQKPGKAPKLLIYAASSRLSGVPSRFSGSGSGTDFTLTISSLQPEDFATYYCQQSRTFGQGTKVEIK ; retrieve measured Neutralization IC50, H1-NJ76.
Ans: 0.11
